assay-method-text: A CellTox Green Cytotoxicity Assay to monitor cytotoxicity in HEK293 cells - 16 hour (AID 1224888); note: nearly all actives have a fitted effect of over 35% in size
measurement-conditions: CellTox Green fluorescence; series mostly up to 76.8 µM
Records with an inconclusive call do not appear. Activity calls are given as the source filed them. Calls come from the whole dose curve; as a rule, active = well fitted activation curve with a large enough effect in the repeat runs; inconclusive = weak or mixed curves; inactive = flat fitted curve, though single readings scatter.
parameter-measured: outcome

Use the examples below as a reference point.
[
  {
    "compound": "O=C(Nc1ccccc1)N(Cc1ccc(Cl)cc1)C1CCCC1",
    "recorded-measurement": "inactive"
  },
  {
    "compound": "CCN(CC)CCOC(=O)C(C)(c1ccccc1)c1ccccc1",
    "recorded-measurement": "inactive"
  },
  {
    "compound": "Cc1cc(C)nc(Nc2ccccc2)n1",
    "recorded-measurement": "inactive"
  },
  {
    "compound": "CCSC(=O)N(CC)C1CCCCC1",
    "recorded-measurement": "inactive"
  },
  {
    "compound": "C=C(C)[C@@H]1CC=C(C=O)CC1",
    "recorded-measurement": "inactive"
  },
  {
    "compound": "[O]=[Cd]",
    "recorded-measurement": "inactive"
  },
  {
    "compound": "CN(N=O)C(N)=O",
    "recorded-measurement": "inactive"
  },
  {
    "compound": "CCC#N",
    "recorded-measurement": "inactive"
  }
]

Ask | Query: outcome; subject: CCCSP(=S)(OCC)Oc1ccc(Cl)cc1Cl (centres undefined)
Reply | inactive

Ask | Moving on to `CCOc1nc(C(Cl)(Cl)Cl)ns1`
Reply | inactive

Ask | Moving on to `COc1cc(OC)nc(NC(=O)NS(=O)(=O)c2ncccc2OCC(F)(F)F)n1`
Reply | inactive

Ask | Moving on to `CC1=C(C(=O)Nc2ccccc2)S(=O)(=O)CCO1`
Reply | inactive

Ask | Moving on to CC(C=O)Cc1ccc2c(c1)OCO2 (centres undefined)
Reply | inactive

Ask | Moving on to `CCOP(=O)(N=C1SCCS1)OCC`
Reply | inactive
